// provenance: the supplement of paper PMC10126150

test system: ATP; experiment: switch fluorescence ratio, 500 uM ATP over buffer (Cy3 cluster intensity, sum of 5 cycles each) (fold (ratio)); higher = stronger signal-on switching upon ATP binding; sequences stand for … in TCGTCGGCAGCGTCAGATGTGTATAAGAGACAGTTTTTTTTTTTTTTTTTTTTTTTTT…TC; settings: aptamer strand: ATP DNA aptamer (quencher-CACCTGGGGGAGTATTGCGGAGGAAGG + anchor), 100 nM annealed; ATP concentration: 500 uM;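 also: ATP exposure 15 min at 22 °C before imaging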
readout-label: switch fluorescence ratio
Give bare numbers.

ACGGGATATA 1.02
GGATTTTTAT 0.999
ATTAGTAGTT 0.996
AGAGGGTCTC 0.973
AACTGTTGTA 0.986
GGGGCGTGAG 0.998

// for each sequence below, give its switch fluorescence ratio
1. ATAGACGCTA
2. TTTTGGTGCG
3. CACATTGTAG
4. TTATCTGTTG
5. CGGGCGCGTG
6. TTTGAATGAT
7. TTTTGGAGTA
8. TTTTAACTTC

Solution:
1: 1.12; 2: 0.986; 3: 1.01; 4: 1; 5: 0.978; 6: 0.984; 7: 1.02; 8: 1

// for each sequence below, give its switch fluorescence ratio
1. CAAGTAGCGA
2. CTTGTAGGGT
3. TTTTTAATGG
4. CACGCGGTGG

Solution:
1.09
1.01
1.01
1.02

// for each sequence below, give its switch fluorescence ratio
1. TTTTACAGCA
2. CAGTCGTCCT

Solution:
1. 1.04
2. 1.03

// for each sequence below, give its switch fluorescence ratio
1. CAGTGTGAAT
2. GCTGATTTTT
3. TTGACGCAGG
4. CAAAAAGATT
5. CGTAACCTTG
6. TTGAAAGGGT
7. GTGGGATTTT
8. TTCTAAAATT

Solution:
1. 1
2. 0.994
3. 1.06
4. 1.01
5. 1.02
6. 0.981
7. 0.986
8. 0.992

// for each sequence below, give its switch fluorescence ratio
1. TGGTAACGGT
2. TTTTTGATTG

Solution:
1.09
1.01

// for each sequence below, give its switch fluorescence ratio
1. AGTTTCGGTC
2. TCAAAGGTTC
3. CTGGGTCGGC
4. GGAAGTTTAA
5. GAGGATTCAT

Solution:
[1, 1.13, 0.965, 1, 1.04]

// for each sequence below, give its switch fluorescence ratio
1. CGCGACGGGG
2. TTACTGAAAA
3. GGGTCAGAAA
4. ATGCTATGGT
5. AGTACGTTAT
6. AGGAATAAAC
7. GGTAATGCTT
8. ATAGATTGCC

Solution:
[1.03, 1.04, 1.04, 0.987, 1.14, 1.02, 1, 0.993]

// for each sequence below, give its switch fluorescence ratio
1. TTGATGTGGT
2. CGCAATTCGA
3. CCACAGTGTT
4. TTTCTATGCG
5. ATGGTATATT
6. TTAGGACGAT
7. TAATTGGGGT

Solution:
1: 0.997; 2: 3.57; 3: 1.61; 4: 0.959; 5: 1; 6: 0.997; 7: 0.994

* * *

system: ATP; test: switch fluorescence ratio, 500 uM ATP over buffer (Cy3 cluster intensity, sum of 5 cycles each) (fold (ratio)); higher = stronger signal-on switching upon ATP binding; sequences stand for … in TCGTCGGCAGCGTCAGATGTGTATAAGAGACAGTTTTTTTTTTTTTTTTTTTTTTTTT…TC; conditions: aptamer strand: ATP DNA aptamer (quencher-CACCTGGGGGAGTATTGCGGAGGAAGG + anchor), 100 nM annealed; ATP concentration: 500 uM;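 also: ATP exposure 15 min at 22 °C before imaging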
I would appreciate it if you labelled entries T when switch fluorescence ratio is 1 or higher, otherwise F.

TCTGGTTTGG T
ATTGCTGGCG F
TGGAAATACG T

API: the following record is the query input.
Exercise: // inclusive: switch fluorescence ratio at least 1? input: GCAGGGAGAG
Solution: F
